Biological target: β2 adrenergic receptors in human astrocytoma cells (1321N1) (Homo sapiens (Human))
Sequence (P07550 whole entry): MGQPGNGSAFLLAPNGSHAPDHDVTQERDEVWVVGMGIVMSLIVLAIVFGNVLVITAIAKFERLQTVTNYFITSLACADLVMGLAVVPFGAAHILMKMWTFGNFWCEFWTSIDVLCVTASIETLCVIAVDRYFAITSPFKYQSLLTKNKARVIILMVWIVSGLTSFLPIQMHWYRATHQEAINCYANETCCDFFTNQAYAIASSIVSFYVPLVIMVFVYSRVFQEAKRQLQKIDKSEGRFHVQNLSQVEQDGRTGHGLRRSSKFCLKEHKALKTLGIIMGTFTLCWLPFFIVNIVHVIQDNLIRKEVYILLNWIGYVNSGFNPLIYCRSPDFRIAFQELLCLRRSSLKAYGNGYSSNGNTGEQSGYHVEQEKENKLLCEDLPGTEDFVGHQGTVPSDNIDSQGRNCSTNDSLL
Test: cAMP HTRF assay in human astrocytoma cells (1321N1)
Format: cell-based
Details: Endogenous receptor; 1321N1 cells; read-out: Average pEC50 [Receptor subtype: Endogenous; Cell type: 1321N1] (converted)
VALUE KIND: EC50

* CC(C)NC[C@H](O)c1cccc(C(F)(F)F)n1 | 10 to 100 nM
* CC(C)(C)NC[C@H](O)c1cccnc1OC1CCC1 | 10 to 100 nM
* Cc1ccc([C@@H](O)CNC(C)(C)C)c(C)n1 | 10 to 100 nM
* CC(C)(C)NC[C@H](O)c1cccc(NC2CC(F)C2)n1 (stereo partly shown) | < 10 nM
* CC(C)(C)NC[C@H](O)c1cc(F)cnc1C1CCCC1 | 100 to 1000 nM
* CC(C)(CO)NC[C@H](O)c1cccc(C#N)n1 | 100 to 1000 nM
* Cc1ccc([C@H](O)CNC(C)(C)C)nc1C#N | 10 to 100 nM
* C#Cc1cccc([C@H](O)CNC(C)(C)C)n1 | 100 to 1000 nM
* CC(C)(C)NC[C@H](O)c1cccc(NC2CCCC2)n1 | < 10 nM
* CC(C)(C)NC[C@H](O)c1cccc(-n2nccn2)n1 | 100 to 1000 nM
* CC1(NC[C@H](O)c2cccc(C(F)(F)F)n2)CC1 | 100 to 1000 nM
* CC(C)Oc1cccc([C@@H](O)CNC(C)(C)C)n1 | < 10 nM
* CC(C)(C)NC[C@H](O)c1cccnc1OC1CC1 | 10 to 100 nM
* CC(C)(C)NC[C@H](O)c1ccc(C(F)(F)F)cn1 | 10 to 100 nM
* CC(C)(C)NC[C@H](O)c1cccc(NC2CC2)n1 | 10 to 100 nM
* C=CCc1ncccc1[C@@H](O)CNC(C)(C)C | 100 to 1000 nM
* CC(C)(C)NC[C@H](O)c1cccc(N2CCCC2)n1 | < 10 nM
* CC(C)(C)NC[C@H](O)c1cccc(Oc2ccccc2)n1 | 10 to 100 nM
* Cc1ncc(Cl)cc1[C@@H](O)CNC(C)(C)C | 100 to 1000 nM
* CC(C)(C)NCC(O)c1cc(C#N)cc(C(F)(F)F)n1 (stereo not shown) | 100 to 1000 nM
* CC(C)Nc1cccc([C@@H](O)CNC(C)(C)C)n1 | 10 to 100 nM
* COc1ccc(CC(C)(C)NC[C@H](O)c2cccc(C(F)(F)F)n2)cc1 | < 10 nM
* COc1ccc(C[C@@H](C)NC[C@H](O)c2ccc(C)nc2)cc1 | < 10 nM
* CCc1ncccc1[C@@H](O)CNC(C)(C)C | > 1000 nM
* Cc1ccc([C@@H](O)CNC(C)(C)C)cn1 | 10 to 100 nM
